- System: A498 renal
- EXPERIMENT_DESCRIPTION: NCI tumour cell line growth inhibition, 48 h
Give Condition met when the value for TGI is at least 20 µM. Give Condition not met when it is less.

# COMPOUND_STRING, CLASS_LABEL
measured = [
    ("O.O.[NH-]C1(C(=O)O)CCCC1.[NH-]C1(C(=O)O)CCCC1.[Ni+2]", "Condition met"),
    ("O=C1N(C2CCCCC2)CC12CCCCC2", "Condition met"),
    ("CN(C)CCCNC(=O)c1c(O)c2ccccc2[nH]c1=O", "Condition met"),
    ("CCOC(=O)Nc1ccc2c(c1)/C(=N\\NC(N)=S)c1ccccc1-2", "Condition not met"),
    ("COc1ccc(-c2nn(-c3cccc(Cl)c3)cc2-c2cc(-c3cccs3)[nH]c(=S)n2)cc1", "Condition not met"),
    ("COc1cccc(N2CCN(CC(=O)N3CCN(c4nnc(-c5ccc(Cl)cc5)c(-c5ccc(Cl)cc5)n4)CC3)CC2)c1", "Condition met"),
    ("COC(=O)c1ccc(-c2nc3cc(Cl)c(Cl)cc3nc2C#N)cc1", "Condition met"),
    ("O=C1C(Cl)=C(Nc2cccc(Cl)c2)C(=O)N1Cc1ccc(Cl)cc1", "Condition not met"),
    ("c1ccc(-c2nnc(-c3ccccn3)c3c2C[C@@H]2C[C@@H]4Cc5c(-c6ccccn6)nnc(-c6ccccn6)c5[C@@H]4[C@H]32)nc1", "Condition not met"),
    ("COc1cc(C2=C(c3cc(OC)c4ccccc4c3OC)C(=O)c3ccccc3C2=O)c(OC)c2ccccc12", "Condition met"),
    ("O=C(O)CN(CC(=O)O)Cc1cc(C#Cc2ccc(C#Cc3ccccc3)cc2)cc(CN(CC(=O)O)CC(=O)O)n1", "Condition met"),
    ("O=[N+]([O-])c1c(F)c(F)c2c(c1F)Nc1ccccc1S2", "Condition met"),
]
